Data credit: the NIST ThermoML archive (doi:10.1021/acs.jced.9b00511)

Catalogue of molecules with associated surface tension liquid-gas
# protocol-summary: wn = mass fraction of the nth substance listed
# test-conditions: 303.2 K, Wilhelmy Plate, w1 = 0.4

molecule	surface tension liquid-gas (mN/m)
CCCCn1cc[n+](C)c1.NCC(=O)[O-] [1-butyl-3-methylimidazolium glycinate] + O	46
CC(O)CN(C)C (centres undefined) [1-(dimethylamino)-2-propanol] + O	33.5
CCCCn1cc[n+](C)c1.NCCCC[C@H](N)C(=O)[O-] [1-butyl-3-methylimidazolium L-lysinate] + O	48.4
C[N+](C)(C)C.NCC(=O)[O-] [tetramethylammonium glycinate] + O	58.5

* * *

Catalogue of compounds with associated surface tension liquid-gas
# protocol-summary: wn = mass fraction of the nth substance listed
# test-conditions: 308.2 K, Wilhelmy Plate, w1 = 0.4

compound	surface tension liquid-gas / mN/m
C[N+](C)(C)C.NCC(=O)[O-] [tetramethylammonium glycinate] + O	57.8
CC(O)CN(C)C (centres undefined) [1-(dimethylamino)-2-propanol] + O	32.7
CCCCn1cc[n+](C)c1.NCCCC[C@H](N)C(=O)[O-] [1-butyl-3-methylimidazolium L-lysinate] + O	47.6
CCCCn1cc[n+](C)c1.NCC(=O)[O-] [1-butyl-3-methylimidazolium glycinate] + O	45.3
